Target: T1, Anti-CD28 Fab (SEQ ID NOs: 696, 697)
T1 construct: In the phage ELISA the Fab was biotinylated and captured on neutravidin coated plates
T1 sequence (VH, as listed by the source, chain 1 of 2): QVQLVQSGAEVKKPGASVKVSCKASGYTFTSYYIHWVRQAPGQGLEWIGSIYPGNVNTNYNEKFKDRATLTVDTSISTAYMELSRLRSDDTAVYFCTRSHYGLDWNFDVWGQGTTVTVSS
T1 sequence (VL, as listed by the source, chain 2 of 2): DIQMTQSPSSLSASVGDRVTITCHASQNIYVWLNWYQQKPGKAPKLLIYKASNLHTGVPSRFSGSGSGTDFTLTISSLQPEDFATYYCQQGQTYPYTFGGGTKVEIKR
Test: phage ELISA; biotinylated anti-CD28 Fab captured on neutravidin plate, clonal phage detected with HRP anti-M13 antibody
Recorded Phage binding ELISA, Anti-CD28 Fab signal values for a group of binders are listed next.
property: Phage binding ELISA, Anti-CD28 Fab signal

>>> print(df.to_string())
                        binder  reportedvalue
0  TCSAGASWGWPWCL [Phage-1632]           1.22
1  LCAAGAYYPWPLCF [Phage-1620]           1.28
2  NCSAGATWPWPMCF [Phage-1622]           1.27
3  SCAAGATYSWPACL [Phage-1624]           1.25
4  TCSAGATYKWPACF [Phage-1619]           1.29
5  TCAAGAVWTWPICF [Phage-1630]           1.23

src = patent US20260242478A1
